Tested on: PC-3 [JPC-3]
assayExplanation: relative viability (nuclei count vs DMSO), 5 days (fraction); higher = more cells survive
setupConditions: first compound 0.05 µM
reportedProperty: relative viability
One number for each entry.

# example entries with known answers
Q. Would you kindly share the measured relative viability for CC1(C)CCC(c2ccc(Cl)cc2)=C(CN2CCN(c3ccc(C(=O)NS(=O)(=O)c4ccc(N[C@H](CCN5CCOCC5)CSc5ccccc5)c(S(=O)(=O)C(F)(F)F)c4)cc3)CC2)C1 [Navitoclax] + Nc1nc2[nH]cc(CCc3ccc(C(=O)N[C@@H](CCC(=O)O)C(=O)O)cc3)c2c(=O)[nH]1 [Pemetrexed] (partner 0.2 µM) ?
A. 0.974

Q. Would you kindly share the measured relative viability for CC1(C)CCC(c2ccc(Cl)cc2)=C(CN2CCN(c3ccc(C(=O)NS(=O)(=O)c4ccc(N[C@H](CCN5CCOCC5)CSc5ccccc5)c(S(=O)(=O)C(F)(F)F)c4)cc3)CC2)C1 [Navitoclax] + Cc1nc(Nc2ncc(C(=O)Nc3c(C)cccc3Cl)s2)cc(N2CCN(CCO)CC2)n1 [Dasatinib] (partner 0.075 µM) ?
A. 0.773

Q. Would you kindly share the measured relative viability for CC1(C)CCC(c2ccc(Cl)cc2)=C(CN2CCN(c3ccc(C(=O)NS(=O)(=O)c4ccc(N[C@H](CCN5CCOCC5)CSc5ccccc5)c(S(=O)(=O)C(F)(F)F)c4)cc3)CC2)C1 [Navitoclax] + CC(C)C[C@H](NC(=O)[C@H](Cc1ccccc1)NC(=O)c1cnccn1)B(O)O [Bortezomib] (partner 0.002 µM) ?
A. 0.732

State the recorded relative viability for every item in the following list.
1. CC1(C)CCC(c2ccc(Cl)cc2)=C(CN2CCN(c3ccc(C(=O)NS(=O)(=O)c4ccc(N[C@H](CCN5CCOCC5)CSc5ccccc5)c(S(=O)(=O)C(F)(F)F)c4)cc3)CC2)C1 [Navitoclax] + O=C(CCCCCCC(=O)Nc1ccccc1)NO [Vorinostat] (partner 1 µM)
2. CC1(C)CCC(c2ccc(Cl)cc2)=C(CN2CCN(c3ccc(C(=O)NS(=O)(=O)c4ccc(N[C@H](CCN5CCOCC5)CSc5ccccc5)c(S(=O)(=O)C(F)(F)F)c4)cc3)CC2)C1 [Navitoclax] + Cc1nc(NC(=O)N2CCC[C@H]2C(N)=O)sc1-c1ccnc(C(C)(C)C(F)(F)F)c1 [Alpelisib] (partner 2 µM)

A.
0.877
1.02

###

Kindly supply the reported relative viability values for the records listed here.
System: HCC-827
assayExplanation: relative viability (nuclei count vs DMSO), 5 days (fraction); higher = more cells survive
setupConditions: first compound 0.5 µM

Q. Would you kindly share the measured relative viability for CC1(C)CCC(c2ccc(Cl)cc2)=C(CN2CCN(c3ccc(C(=O)NS(=O)(=O)c4ccc(N[C@H](CCN5CCOCC5)CSc5ccccc5)c(S(=O)(=O)C(F)(F)F)c4)cc3)CC2)C1 [Navitoclax] + Nc1nc2[nH]cc(CCc3ccc(C(=O)N[C@@H](CCC(=O)O)C(=O)O)cc3)c2c(=O)[nH]1 [Pemetrexed] (partner 0.2 µM) ?
A. 0.258

Q. Would you kindly share the measured relative viability for CC1(C)CCC(c2ccc(Cl)cc2)=C(CN2CCN(c3ccc(C(=O)NS(=O)(=O)c4ccc(N[C@H](CCN5CCOCC5)CSc5ccccc5)c(S(=O)(=O)C(F)(F)F)c4)cc3)CC2)C1 [Navitoclax] + CC(=O)c1c(C)c2cnc(Nc3ccc(N4CCNCC4)cn3)nc2n(C2CCCC2)c1=O [Palbociclib] (partner 0.5 µM) ?
A. 0.437

Q. Would you kindly share the measured relative viability for CC1(C)CCC(c2ccc(Cl)cc2)=C(CN2CCN(c3ccc(C(=O)NS(=O)(=O)c4ccc(N[C@H](CCN5CCOCC5)CSc5ccccc5)c(S(=O)(=O)C(F)(F)F)c4)cc3)CC2)C1 [Navitoclax] + COc1cccc2cc(-c3nc([C@H]4CC[C@H](C(=O)O)CC4)n4ncnc(N)c34)[nH]c12 [OSI-027] (partner 0.5 µM) ?
A. 0.812

State the recorded relative viability for every item in the following list.
1. CC1(C)CCC(c2ccc(Cl)cc2)=C(CN2CCN(c3ccc(C(=O)NS(=O)(=O)c4ccc(N[C@H](CCN5CCOCC5)CSc5ccccc5)c(S(=O)(=O)C(F)(F)F)c4)cc3)CC2)C1 [Navitoclax] + Cc1nc(NC(=O)N2CCC[C@H]2C(N)=O)sc1-c1ccnc(C(C)(C)C(F)(F)F)c1 [Alpelisib] (partner 2 µM)
2. CC1(C)CCC(c2ccc(Cl)cc2)=C(CN2CCN(c3ccc(C(=O)NS(=O)(=O)c4ccc(N[C@H](CCN5CCOCC5)CSc5ccccc5)c(S(=O)(=O)C(F)(F)F)c4)cc3)CC2)C1 [Navitoclax] + Cc1cc(Nc2cc(N3CCN(C)CC3)nc(Sc3ccc(NC(=O)C4CC4)cc3)n2)n[nH]1 [Tozasertib] (partner 0.1 µM)

A.
[1.01, 0.454]

Q. Would you kindly share the measured relative viability for CC1(C)CCC(c2ccc(Cl)cc2)=C(CN2CCN(c3ccc(C(=O)NS(=O)(=O)c4ccc(N[C@H](CCN5CCOCC5)CSc5ccccc5)c(S(=O)(=O)C(F)(F)F)c4)cc3)CC2)C1 [Navitoclax] + CCNC(=O)c1noc(-c2cc(C(C)C)c(O)cc2O)c1-c1ccc(CN2CCOCC2)cc1 [Luminespib] (partner 0.01 µM) ?
A. 0.69

###

Tested on: NCI-H1563
assayExplanation: relative viability (nuclei count vs DMSO), 5 days (fraction); higher = more cells survive
setupConditions: first compound 0.08 µM
Kindly supply the reported relative viability values for the records listed here.
Answers are plain numbers.

Q. Would you kindly share the measured relative viability for Oc1nc(-c2ccc(C(F)(F)F)cc2)nc2c1CSCC2 [XAV939] + Nc1nc2[nH]cc(CCc3ccc(C(=O)N[C@@H](CCC(=O)O)C(=O)O)cc3)c2c(=O)[nH]1 [Pemetrexed] (partner 0.2 µM) ?
A. 0.823

Q. Would you kindly share the measured relative viability for C=C1C(=O)O[C@@H](CCCCCCCC)[C@@H]1C(=O)O [C-75] + Nc1nc2[nH]cc(CCc3ccc(C(=O)N[C@@H](CCC(=O)O)C(=O)O)cc3)c2c(=O)[nH]1 [Pemetrexed] (partner 0.2 µM) ?
A. 0.8

Q. Would you kindly share the measured relative viability for Oc1nc(-c2ccc(C(F)(F)F)cc2)nc2c1CSCC2 [XAV939] + C[C@@H](Oc1cc(-c2cnn(C3CCNCC3)c2)cnc1N)c1c(Cl)ccc(F)c1Cl [Crizotinib] (partner 1 µM) ?
A. 0.834

State the recorded relative viability for every item in the following list.
1. C=C1C(=O)O[C@@H](CCCCCCCC)[C@@H]1C(=O)O [C-75] + CC(C)C[C@H](NC(=O)[C@H](Cc1ccccc1)NC(=O)c1cnccn1)B(O)O [Bortezomib] (partner 0.002 µM)
2. C=C1C(=O)O[C@@H](CCCCCCCC)[C@@H]1C(=O)O [C-75] + Cc1nc(NC(=O)N2CCC[C@H]2C(N)=O)sc1-c1ccnc(C(C)(C)C(F)(F)F)c1 [Alpelisib] (partner 2 µM)
3. C=C1C(=O)O[C@@H](CCCCCCCC)[C@@H]1C(=O)O [C-75] + C[C@]1(O)C[C@@H](c2nc(-c3ccc4ccc(-c5ccccc5)nc4c3)c3c(N)nccn32)C1 [Linsitinib] (partner 1 µM)
4. C=C1C(=O)O[C@@H](CCCCCCCC)[C@@H]1C(=O)O [C-75] + COc1cccc2cc(-c3nc([C@H]4CC[C@H](C(=O)O)CC4)n4ncnc(N)c34)[nH]c12 [OSI-027] (partner 0.5 µM)
5. C=C1C(=O)O[C@@H](CCCCCCCC)[C@@H]1C(=O)O [C-75] + C[C@@H](Oc1cc(-c2cnn(C3CCNCC3)c2)cnc1N)c1c(Cl)ccc(F)c1Cl [Crizotinib] (partner 1 µM)
6. Oc1nc(-c2ccc(C(F)(F)F)cc2)nc2c1CSCC2 [XAV939] + CS(=O)(=O)CCNCc1ccc(-c2ccc3ncnc(Nc4ccc(OCc5cccc(F)c5)c(Cl)c4)c3c2)o1 [Lapatinib] (partner 2 µM)
7. C=C1C(=O)O[C@@H](CCCCCCCC)[C@@H]1C(=O)O [C-75] + Cc1nc(Nc2ncc(C(=O)Nc3c(C)cccc3Cl)s2)cc(N2CCN(CCO)CC2)n1 [Dasatinib] (partner 0.075 µM)

A.
1. 0.855
2. 0.939
3. 1.24
4. 0.806
5. 0.801
6. 1.15
7. 0.387

###

Tested on: LCLC-97TM1
assayExplanation: relative viability (nuclei count vs DMSO), 5 days (fraction); higher = more cells survive
setupConditions: first compound 0.253 µM
Kindly supply the reported relative viability values for the records listed here.
Answers are plain numbers.

# example entries with known answers
Q. Would you kindly share the measured relative viability for Oc1nc(-c2ccc(C(F)(F)F)cc2)nc2c1CSCC2 [XAV939] + CS(=O)(=O)N1CCN(Cc2cc3nc(-c4cccc5[nH]ncc45)nc(N4CCOCC4)c3s2)CC1 [Pictilisib] (partner 1 µM) ?
A. 0.198

Q. Would you kindly share the measured relative viability for C=C1C(=O)O[C@@H](CCCCCCCC)[C@@H]1C(=O)O [C-75] + O=C(c1cc(Cc2n[nH]c(=O)c3ccccc23)ccc1F)N1CCN(C(=O)C2CC2)CC1 [Olaparib] (partner 8 µM) ?
A. 0.402

Q. Would you kindly share the measured relative viability for Oc1nc(-c2ccc(C(F)(F)F)cc2)nc2c1CSCC2 [XAV939] + CCNC(=O)c1noc(-c2cc(C(C)C)c(O)cc2O)c1-c1ccc(CN2CCOCC2)cc1 [Luminespib] (partner 0.01 µM) ?
A. 0.763

State the recorded relative viability for every item in the following list.
1. Oc1nc(-c2ccc(C(F)(F)F)cc2)nc2c1CSCC2 [XAV939] + CC(=O)Nc1cccc(-n2c(=O)n(C3CC3)c(=O)c3c(Nc4ccc(I)cc4F)n(C)c(=O)c(C)c32)c1 [Trametinib] (partner 0.02 µM)
2. Oc1nc(-c2ccc(C(F)(F)F)cc2)nc2c1CSCC2 [XAV939] + CC(=O)c1c(C)c2cnc(Nc3ccc(N4CCNCC4)cn3)nc2n(C2CCCC2)c1=O [Palbociclib] (partner 0.5 µM)

A.
0.199
0.204

State the recorded relative viability for every item in the following list.
1. C=C1C(=O)O[C@@H](CCCCCCCC)[C@@H]1C(=O)O [C-75] + C[C@]1(O)C[C@@H](c2nc(-c3ccc4ccc(-c5ccccc5)nc4c3)c3c(N)nccn32)C1 [Linsitinib] (partner 1 µM)
2. Oc1nc(-c2ccc(C(F)(F)F)cc2)nc2c1CSCC2 [XAV939] + Cc1nc(NC(=O)N2CCC[C@H]2C(N)=O)sc1-c1ccnc(C(C)(C)C(F)(F)F)c1 [Alpelisib] (partner 2 µM)

A.
1. 0.309
2. 0.232

State the recorded relative viability for every item in the following list.
1. Oc1nc(-c2ccc(C(F)(F)F)cc2)nc2c1CSCC2 [XAV939] + C[C@]1(O)C[C@@H](c2nc(-c3ccc4ccc(-c5ccccc5)nc4c3)c3c(N)nccn32)C1 [Linsitinib] (partner 1 µM)
2. C=C1C(=O)O[C@@H](CCCCCCCC)[C@@H]1C(=O)O [C-75] + CS(=O)(=O)N1CCN(Cc2cc3nc(-c4cccc5[nH]ncc45)nc(N4CCOCC4)c3s2)CC1 [Pictilisib] (partner 1 µM)
3. C=C1C(=O)O[C@@H](CCCCCCCC)[C@@H]1C(=O)O [C-75] + Cc1nc(Nc2ncc(C(=O)Nc3c(C)cccc3Cl)s2)cc(N2CCN(CCO)CC2)n1 [Dasatinib] (partner 0.075 µM)

A.
1. 0.19
2. 0.215
3. 0.807
